Listed here: items and their measured Phage binding ELISA signal, Anti-PSMA Fab in presence of PSMA antigen.
biological target: T1, PSMA Fab; assay: phage ELISA; biotinylated PSMA Fab on neutravidin plate, pre-incubated with PSMA antigen as competitor; anti-M13-HRP
T1 construct: Used biotinylated and captured on neutravidin plates in the phage ELISA; also called Anti-PSMA Fab; 006 PSMA Fab
Reply briefly: the number, and no unit.

Here are 3 binders together with their reported answers.
[[record]]
binder = "VQPWCVPSWMCERF (also called Peptide-180 library clone) [Phage-3743]"
reading = 0.312

[[record]]
binder = "LLLRCEPTWMCTGF (also called Peptide-180 library clone) [Phage-3740]"
reading = 0.0711

[[record]]
binder = "HSVHCVPMWMCTGF (also called Peptide-180 library clone) [Phage-3738]"
reading = 0.0781


Okay, next one:
## Input Need Phage binding ELISA signal, Anti-PSMA Fab in presence of PSMA antigen, item WTPLCKPLWMCQGL (also called Peptide-180 library clone) [Phage-3741]
## Output 0.16
